Target: Human PPARα (Homo sapiens, UniProt Q07869)
Construct: host or cells: proprietary non-human mammalian cells
Sequence (Q07869 1-468): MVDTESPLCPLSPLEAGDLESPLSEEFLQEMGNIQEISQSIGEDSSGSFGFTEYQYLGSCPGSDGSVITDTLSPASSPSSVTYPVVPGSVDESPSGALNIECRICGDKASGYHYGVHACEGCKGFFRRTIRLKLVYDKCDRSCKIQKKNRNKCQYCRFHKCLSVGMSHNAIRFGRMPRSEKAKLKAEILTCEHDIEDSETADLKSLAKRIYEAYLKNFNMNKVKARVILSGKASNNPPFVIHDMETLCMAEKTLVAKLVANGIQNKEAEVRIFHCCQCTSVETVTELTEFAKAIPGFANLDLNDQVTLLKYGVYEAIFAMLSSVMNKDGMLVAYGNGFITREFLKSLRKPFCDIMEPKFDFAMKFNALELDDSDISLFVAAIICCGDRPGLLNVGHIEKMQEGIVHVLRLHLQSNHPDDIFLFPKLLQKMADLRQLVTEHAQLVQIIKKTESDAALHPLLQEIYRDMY
Test: Human PPARα Reporter Assay (luciferase)
Format: cell-based
Conditions: human PPARα reporter cells, overnight incubation, antagonism; read-out: Luciferase IC50
pIC50 values by entry
FYI, pIC50 means -log10 of a concentration in mol per litre.

Worked examples, 2 molecules total:
INSERT INTO measurements (molecule, measured_value) VALUES
  ('CC(C)(C)c1ccc(Cn2nc(CCCc3ccc(-c4cccc(CC(=O)O)c4)cc3)n(CC3CC3)c2=O)cc1', 6.44),
  ('CCn1c(CCCc2ccc(-c3cccc(N)c3)cc2)nn(Cc2ccc(C(C)(C)C)cc2)c1=O', 6.59);

Entry CCn1c(CCCc2ccc(-c3cccc(C(O)C(=O)NC4CC4)c3)cc2)nn(Cc2ccc(C(C)(C)C)cc2)c1=O (stereo not drawn) has what pIC50?
6.48

Please give the measured pIC50 for this molecule: CCn1c(CCCc2ccc(-c3ccc4occ(C(=O)O)c4c3)cc2)nn(Cc2ccc(C(C)(C)C)cc2)c1=O
6.60

Find the recorded pIC50 belonging to CCn1c(CCCc2ccc(-c3cccc(C4(C(N)=O)CC4)c3)cc2)nn(Cc2ccc(C(C)(C)C)cc2)c1=O and report it.
6.55

Which pIC50 value belongs to CCn1c(CCCc2ccc(-c3cccc(CC(=O)O)c3)cc2)nn(Cc2ccc(C(F)(F)F)cc2)c1=O ?
6.24

Which pIC50 is reported for this molecule? CCn1c(CCCc2ccc(-c3ccc(NS(C)(=O)=O)cn3)cc2)nn(Cc2ccc(C(C)(C)C)cc2)c1=O
7.20

Fill in the blank: the reported pIC50 of CCn1c(CCCc2ccc(-c3ccc(OC)c(CC(=O)O)c3)cc2)nn(Cc2ccc(C3(F)COC3)cc2)c1=O is ____.
6.25

Can you look up the measured pIC50 of CCn1c(CCCc2ccc(-c3cccc(CC(=O)O)c3)cc2)nn(Cc2ccc(Br)cc2)c1=O for me?
5.71

----------
Biological target: Human PPARα (Homo sapiens)
Construct: host or cells: proprietary non-human mammalian cells
Sequence (Q07869 1-468): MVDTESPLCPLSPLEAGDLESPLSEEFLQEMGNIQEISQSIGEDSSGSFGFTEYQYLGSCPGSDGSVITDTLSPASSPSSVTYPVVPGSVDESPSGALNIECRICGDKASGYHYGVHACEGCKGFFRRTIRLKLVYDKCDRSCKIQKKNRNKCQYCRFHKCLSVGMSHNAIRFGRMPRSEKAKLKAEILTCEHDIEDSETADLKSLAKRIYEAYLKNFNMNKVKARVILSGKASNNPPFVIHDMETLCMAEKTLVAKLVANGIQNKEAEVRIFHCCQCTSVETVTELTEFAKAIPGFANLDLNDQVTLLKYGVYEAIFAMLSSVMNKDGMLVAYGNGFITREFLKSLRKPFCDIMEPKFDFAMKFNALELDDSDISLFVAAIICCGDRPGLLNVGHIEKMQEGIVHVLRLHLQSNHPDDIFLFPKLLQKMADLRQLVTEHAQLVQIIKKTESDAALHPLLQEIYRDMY
Test: Human PPARα Reporter Assay (luciferase)
Assay type: cell-based
Details: human PPARα reporter cells, overnight incubation, antagonism; read-out: Luciferase IC50
Friendly reminder: IC50 below 0.4 µM is Y, at or above is N.

Consider the following illustrative entries.
INSERT INTO results (molecule, target_of_assay, group_label) VALUES
  ('CCn1c(CCCc2ccc(-c3ccc(C)c(NS(=O)(=O)c4ccccc4)c3)cc2)nn(Cc2ccc(C(C)(C)C)cc2)c1=O [Example 152]', 'Human PPARα (Homo sapiens)', 'Y'),
  ('CCn1c(CCCc2ccc(-c3cccc(CC(=O)O)c3F)cc2)nn(Cc2ccc(C(C)(C)C)cc2)c1=O [Example 18]', 'Human PPARα (Homo sapiens)', 'N'),
  ('CCCC(=O)Nc1cccc(-c2ccc(CCCc3nn(Cc4ccc(C(C)(C)C)cc4)c(=O)n3CC)cc2)n1 [Example 100]', 'Human PPARα (Homo sapiens)', 'N'),
  ('CCn1c(CCCc2ccc(-c3cccc(NS(=O)(=O)C4CC4)n3)cc2)nn(Cc2ccc(C(C)(C)C)cc2)c1=O [Example 42]', 'Human PPARα (Homo sapiens)', 'N'),
  ('CCn1c(CCCc2ccc(-c3cc(C(=O)O)cc(C(F)(F)F)c3)cc2)nn(Cc2ccc(C(C)(C)C)cc2)c1=O [Example 41]', 'Human PPARα (Homo sapiens)', 'N');

Is IC50 strictly under 0.4 µM for the entry CCn1c(CCCc2ccc(-c3ccc(OC)c(CCNS(C)(=O)=O)c3)cc2)nn(Cc2ccc(C(C)(C)C)cc2)c1=O [Example 183] ?
N
